Ref: paper PMC3071374

- SUBJECT_OF_TEST: CDK4:CYCD1 (Homo sapiens, UniProt P11802)
- Sequence (P11802 whole entry): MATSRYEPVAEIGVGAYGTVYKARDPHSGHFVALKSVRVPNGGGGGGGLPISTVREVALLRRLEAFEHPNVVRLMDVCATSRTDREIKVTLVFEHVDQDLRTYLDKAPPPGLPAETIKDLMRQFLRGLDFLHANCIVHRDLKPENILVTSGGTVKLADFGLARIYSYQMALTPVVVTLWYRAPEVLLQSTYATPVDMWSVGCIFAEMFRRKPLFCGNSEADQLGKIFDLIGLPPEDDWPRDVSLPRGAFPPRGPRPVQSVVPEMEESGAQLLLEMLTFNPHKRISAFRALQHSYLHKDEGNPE
- Sequence (P24385 whole entry partner): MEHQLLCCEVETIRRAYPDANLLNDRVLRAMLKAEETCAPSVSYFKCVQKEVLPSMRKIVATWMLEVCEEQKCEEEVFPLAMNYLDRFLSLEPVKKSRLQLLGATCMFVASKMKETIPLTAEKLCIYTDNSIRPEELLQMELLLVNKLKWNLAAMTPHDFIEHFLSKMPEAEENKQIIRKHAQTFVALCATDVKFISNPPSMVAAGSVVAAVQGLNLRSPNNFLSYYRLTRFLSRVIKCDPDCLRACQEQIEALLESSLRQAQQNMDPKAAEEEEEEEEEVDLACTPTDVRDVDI
ASSAY_ENDPOINT: pIC50
Please keep in mind that pIC50 is minus log10 of the molar concentration; only the number is needed.

Record summary for COc1ccc(-n2nnc3c(NCC(C)O)nc(CC4CCCCC4)nc32)cc1 (centres unmarked) : reported pIC50 = 4.66

pIC50 for COc1ccc(-n2nnc3c(NC(Cc4ccccc4)Cn4nc(C)cc4C)nc(CC4CCCCC4)nc32)cc1 (centres unmarked) is 5.14

Just so you know, measured pIC50 for COc1ccc(-n2nnc3c(NC(CO)CC(C)C)nc(CC4CCCCC4)nc32)cc1 (centres unmarked) came out at 5.34

# molecule COc1ccc(-n2nnc3c(N(C)C4COCC4N(C)C)nc(CC4CCCCC4)nc32)cc1 (centres unmarked) ; its pIC50 = 4.99

So for COc1ccc(-n2nnc3c(N(C)CCN(C)C4c5ccccc5CC4O)nc(CC4CCCCC4)nc32)cc1 (centres unmarked) , the logged pIC50 turned out to be 4.90

The measured pIC50 associated with COc1ccc(-n2nnc3c(N4CCCC(O)C4)nc(CC4CCCCC4)nc32)cc1 (racemic) reads 5.01

Entry "COc1ccc(-n2nnc3c(NC(C)C)nc(CC4CCCCC4)nc32)cc1" , pIC50 reported as 4.70

Just so you know, measured pIC50 for "COc1ccc(-n2nnc3c(N4CC(N5CCN(c6ccccn6)CC5)C4)nc(CC4CCCCC4)nc32)cc1" came out at 5.17

* * *

For each entry below, report its IC50 value.
- SUBJECT_OF_TEST: Leishmania CRK3:CYC6 (Leishmania major)
- Assay type: biochemical
- SETTINGS: re-synthesised Lexicon azapurine hits
- Sequence (Q4Q4U0 entry or part of it): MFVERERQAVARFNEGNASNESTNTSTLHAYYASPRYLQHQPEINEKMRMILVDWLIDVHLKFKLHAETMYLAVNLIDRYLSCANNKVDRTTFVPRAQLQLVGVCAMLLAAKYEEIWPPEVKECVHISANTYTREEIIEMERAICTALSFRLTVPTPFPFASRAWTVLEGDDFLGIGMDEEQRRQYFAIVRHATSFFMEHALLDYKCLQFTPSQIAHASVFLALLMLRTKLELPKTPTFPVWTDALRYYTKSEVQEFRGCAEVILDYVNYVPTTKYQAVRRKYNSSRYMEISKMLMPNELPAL
- Sequence (O96526 entry or part of it): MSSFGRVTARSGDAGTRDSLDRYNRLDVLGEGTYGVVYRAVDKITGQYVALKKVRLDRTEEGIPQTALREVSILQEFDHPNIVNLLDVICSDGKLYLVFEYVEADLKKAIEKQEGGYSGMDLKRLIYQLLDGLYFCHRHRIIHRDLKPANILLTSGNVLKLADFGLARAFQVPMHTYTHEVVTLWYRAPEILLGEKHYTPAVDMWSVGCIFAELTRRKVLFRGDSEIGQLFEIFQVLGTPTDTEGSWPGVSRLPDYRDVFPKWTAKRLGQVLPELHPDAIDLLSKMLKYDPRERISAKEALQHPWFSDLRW
Supply the numeric figure in µM, leaving out any unit text.

For this compound ( COc1ccc(-n2nnc3c(N4CCCC(CO)C4)nc(CC4CCCCC4)nc32)cc1 (stereo not shown) ), measured IC50 is 4.4

The compound listed as COc1ccc(-n2nnc3c(NCC(C)O)nc(CC4CCCCC4)nc32)cc1 (stereo not shown) has a reported IC50 of 24.2

Note to self: IC50 recorded for COc1ccc(-n2nnc3c(N4CCCC(O)C4)nc(CC4CCCCC4)nc32)cc1 (racemic) was 4.2

For reference, reported IC50 for "COc1ccc(-n2nnc3c(NC(C)C)nc(CC4CCCCC4)nc32)cc1" stands at 37.9

* * *

- SUBJECT_OF_TEST: human CDK2:CycA (Homo sapiens, UniProt P24941)
- EXPERIMENTAL_PROTOCOL: Mammalian protein kinase assay / counter screen, CDK2:CYCA
- Type: biochemical
- SETTINGS: BioFocus SFK48 library, counter screen
- Experimental: Leishmania CRK3:CYC6 protein kinase assays were performed in 96-well microtiter plates in a final volume of 25 µl. […] 50 µl of Microscint 40 (Perkin Elmer) was added per well before incorporation of radioactivity was determined on a Topcount microplate scintillation counter.
ASSAY_ENDPOINT: activity towards CDK2:CycA in the primary screen

CN(C)Cc1csc(NC(=O)Nc2ccccc2Oc2ccccc2)n1 [Compound 44] ... active
COc1ccc(CC(N)c2csc(NC(=O)Nc3cc(OC)ccc3OC)n2)cc1 (stereo not shown) [Compound 45] ... inactive
COc1ccc(CNC(=O)Nc2nc(C(N)CCc3ccccc3)cs2)cc1 (stereo not shown) [Compound 46] ... inactive
NC(c1csc(NC(=O)Nc2cccc(Cl)c2)n1)c1ccccc1Cl (stereo not shown) [Compound 43] ... active

* * *

- SUBJECT_OF_TEST: Leishmania CRK3:CYC6 (Leishmania major, UniProt O96526)
- Assay type: biochemical
- SETTINGS: Lexicon azapurine HTS hits
For each entry below, report its pIC50 value.
Keep in mind that pIC50 stands for -log10 of concentration in molar terms.

Response field pIC50 (Leishmania CRK3:CYC6 (Leishmania major, UniProt O96526)) for item "COc1ccc(-n2nnc3c(N4CC(N5CCN(c6ccccn6)CC5)C4)nc(CC4CCCCC4)nc32)cc1" : 4.99

Summary line: CCCN(c1nc(CC2CCCCC2)nc2c1nnn2-c1ccc(OC)cc1)C1CCCC1N(C)C (stereo not drawn) , Leishmania CRK3:CYC6 (Leishmania major, UniProt O96526), reported pIC50 = 5.47

Entry COc1ccc(-n2nnc3c(N4CCCC(O)C4)nc(CC4CCCCC4)nc32)cc1 (racemic) , tested on Leishmania CRK3:CYC6 (Leishmania major, UniProt O96526), has a reported pIC50 of 5.28

Lab note: compound "COc1ccc(-n2nnc3c(NC(C)C)nc(CC4CCCCC4)nc32)cc1" tested on Leishmania CRK3:CYC6 (Leishmania major, UniProt O96526); recorded pIC50 was 5.06

Result for COc1ccc(-n2nnc3c(NC(CO)CC(C)C)nc(CC4CCCCC4)nc32)cc1 (stereo not drawn) , tested on Leishmania CRK3:CYC6 (Leishmania major, UniProt O96526), pIC50: 4.97

Fill in: Leishmania CRK3:CYC6 (Leishmania major, UniProt O96526) pIC50 for COc1ccc(-n2nnc3c(NCC(C)O)nc(CC4CCCCC4)nc32)cc1 (stereo not drawn) = 5.36

Field pIC50 (Leishmania CRK3:CYC6 (Leishmania major, UniProt O96526)), entry "CCC(CC)Nc1nc(CC2CCCCC2)nc2c1nnn2-c1ccc(OC)cc1" : 5.09

Record COc1ccc(-n2nnc3c(N(C)C(CN4CCCCC4)c4ccccc4)nc(CC4CCCCC4)nc32)cc1 (stereo not drawn) has Leishmania CRK3:CYC6 (Leishmania major, UniProt O96526) pIC50 equal to 5.11

pIC50 of COc1ccc(-n2nnc3c(N(C)C4COCC4N(C)C)nc(CC4CCCCC4)nc32)cc1 (stereo not drawn) , assay on Leishmania CRK3:CYC6 (Leishmania major, UniProt O96526), is 5.36

The reported Leishmania CRK3:CYC6 (Leishmania major, UniProt O96526) pIC50 of COc1ccc(-n2nnc3c(N(C)CCN(C)C4c5ccccc5CC4O)nc(CC4CCCCC4)nc32)cc1 (stereo not drawn) is 5.59

COc1ccc(-n2nnc3c(NC(Cc4ccccc4)Cn4nc(C)cc4C)nc(CC4CCCCC4)nc32)cc1 (stereo not drawn) on Leishmania CRK3:CYC6 (Leishmania major, UniProt O96526) gives pIC50 = 5.00

Measured pIC50 for this entry COc1ccc(-n2nnc3c(N4CCCC(CO)C4)nc(CC4CCCCC4)nc32)cc1 (stereo not drawn) on Leishmania CRK3:CYC6 (Leishmania major, UniProt O96526): 5.16

* * *

pIC50: −log10 of the molar value.
ASSAY_ENDPOINT: pIC50

Reading of pIC50 for COc1ccc(C(N)c2csc(NC(=O)Nc3ccc(C(C)C)cc3)n2)cc1 (centres unmarked) with human CDK2:CycA (Homo sapiens, UniProt P24941): < 4.70

# value of pIC50, human CDK2:CycA (Homo sapiens, UniProt P24941), item NC(c1ccccc1)c1csc(NC(=O)Nc2ccccc2Cl)n1 (centres unmarked) = < 4.70

* * *

- SUBJECT_OF_TEST: Leishmania CRK3:CYC6 (Leishmania major, UniProt O96526)
- Format: biochemical
- SETTINGS: synthesised azapurine derivatives
- Description: Leishmania CRK3:CYC6 protein kinase assays were performed in 96-well microtiter plates in a final volume of 25 µl. […] 50 µl of Microscint 40 (Perkin Elmer) was added per well before incorporation of radioactivity was determined on a Topcount microplate scintillation counter.
ASSAY_ENDPOINT: IC50 (µM)
# value in µM; strip the unit string

For this molecule ( "COc1ccc(Cn2nnc3c(NCc4ccccn4)nc(CC4CCCCC4)nc32)cc1" ), measured IC50 is 39.1

What the record says about "COc1ccc(-n2nnc3c(N4CCOCC4)nc(CC4CCCCC4)nc32)cc1" : IC50 is 30.3

* * *

- SUBJECT_OF_TEST: Leishmania CRK3:CYC6 (Leishmania major)
- EXPERIMENTAL_PROTOCOL: IMAP fluorescence polarisation high throughput screen of CRK3:CYC6
- Assay type: biochemical, L. major
- Design: made in house; host or cells: E. coli BL21 (DE3) pLys-S
- SETTINGS: BioFocus SFK48 library, primary concentration 20 µM
- Sequence (O96526 entry or part of it): as above
ASSAY_ENDPOINT: activity towards CRK3:CYC6 in the primary screen

COc1ccc(CNC(=O)Nc2nc(C(N)CCc3ccccc3)cs2)cc1 (stereo not shown) ... inactive
CN(C)Cc1csc(NC(=O)Nc2ccccc2Oc2ccccc2)n1 ... active
COc1ccc(CC(N)c2csc(NC(=O)Nc3cc(OC)ccc3OC)n2)cc1 (stereo not shown) ... inactive
NC(c1csc(NC(=O)Nc2cccc(Cl)c2)n1)c1ccccc1Cl (stereo not shown) ... active

* * *

- Test system: WT amastigote L. major
- EXPERIMENTAL_PROTOCOL: Intra-macrophage L. major amastigote assay
- Format: cell-based
- SETTINGS: synthesised azapurine derivatives; infected peritoneal macrophages; read-out: IC50 against WT amastigote L. major
- Experimental: Macrophages were harvested from the peritoneum of Balb/C mice, centrifuged at 1000× g for 10 minutes at 4°C and resuspended in fresh RPMI 1640 media supplemented with 10% HIFCS and 1% (v/v) Gentamicin, as described previously. […] The percentage of infected macrophages and number of amastigotes per macrophage were determined by light microscopy under oil immersion.
pIC50: −log10 of the molar value.
Exercise: for every item that follows, state its recorded pIC50.

pIC50 recorded for this molecule, OC1CCCN(c2nc(CC3CCCCC3)nc3c2nnn3Cc2ccc(F)cc2)C1 (racemic) , is < 4.30

Quick note, pIC50 for "COc1ccc(Cn2nnc3c(NCc4ccccn4)nc(CC4CCCCC4)nc32)cc1" landed at 4.82 to 5.30

Short answer for "COc1ccc(-n2nnc3c(N4CCOCC4)nc(CC4CCCCC4)nc32)cc1" : pIC50 was 4.52 to 4.82

Entry "COc1ccc(-n2nnc3c(NCCN4CCOCC4)nc(CC4CCCCC4)nc32)cc1" , pIC50 reported as 4.82 to 5.30

For reference, reported pIC50 for "ONc1nc(CC2CCCCC2)nc2c1nnn2Cc1ccc(F)cc1" stands at < 4.30

For record COc1ccc(-n2nnc3c(NCC(C)O)nc(Cc4ccccc4)nc32)cc1 (stereo not drawn) the listed pIC50 is < 4.60
